assay: qHTS assay to test for compound auto fluorescence at 460 nm (blue) in HEK293 cells (AID 720678); conditions: blue autofluorescence 405/460 nm; series mostly up to 91.3 µM
Calls of active or inactive are those of the source. Calls follow the shape of the dose curve; as a rule, active = well fitted curve in the direction sought with a large enough effect in the repeat runs; inconclusive = weak or mixed curves; inactive = flat fitted curve, though single readings scatter.
Measured Attribute: fluorescence, % of triamterene

[[record]]
compound = "Nc1ccc(C(=O)Nc2ccccc2N)cc1"
measured_attribute = "fluorescence, % of triamterene"
value = "inactive"

[[record]]
compound = "C=CCCCCCC"
measured_attribute = "fluorescence, % of triamterene"
value = "inactive"

[[record]]
compound = "CCOC(=O)C1=C(C)NC(C)=C(C(=O)OC)C1c1cccc([N+](=O)[O-])c1 (stereo not drawn)"
measured_attribute = "fluorescence, % of triamterene"
value = "inactive"

[[record]]
compound = "CC(C)(C)c1cc(O)c(C(C)(C)C)cc1O"
measured_attribute = "fluorescence, % of triamterene"
value = "inactive"

[[record]]
compound = "COCCO"
measured_attribute = "fluorescence, % of triamterene"
value = "inactive"

[[record]]
compound = "NC(N)=N/N=C/c1c(Cl)cccc1Cl"
measured_attribute = "fluorescence, % of triamterene"
value = "inactive"

[[record]]
compound = "CC(C)=CCCC(C)CC=O (stereo not drawn)"
measured_attribute = "fluorescence, % of triamterene"
value = "inactive"

[[record]]
compound = "C=CC(=O)OCC(C)OCC(C)OCC(C)OC(=O)C=C (stereo not drawn)"
measured_attribute = "fluorescence, % of triamterene"
value = "inactive"


###

test: qHTS assay for identifying genotoxic compounds that show differential cytotoxicity against isogenic chicken DT40 cell lines with known DNA damage response pathways - Rad54/Ku70 mutant cell line (AID 743015); details: DT40 Rad54/Ku70 mutant viability, CellTiter-Glo, 40 h; series mostly up to 66.8 µM; also: nearly all actives have a fitted effect of over 60% in size; also: potency is read from the fitted curve at half-maximal effect
Results filed as inconclusive are left out. The source made the active and inactive calls. The call rests on the fitted dose curve; in most records, active means well fitted cell-killing curve with a large enough effect in the repeat runs; inconclusive means weak or mixed curves; inactive means no such curve, though single readings can be large or run the other way.
Measured Attribute: Potency

[[record]]
molecule = "CC(=O)c1ccc2c(c1)[C@H](NC(=O)c1ccc(F)cc1)[C@@H](O)C(C)(C)O2"
value = "inactive"

[[record]]
molecule = "CC(Cc1cccc(C(F)(F)F)c1)NCCOC(=O)c1ccccc1 (stereo not given)"
value = "26.6 µM (active)"

[[record]]
molecule = "CCCCCCCCCCCCCCCBr"
value = "inactive"

[[record]]
molecule = "O=C(O)COC(=O)Cc1ccccc1Nc1c(Cl)cccc1Cl"
value = "inactive"

[[record]]
molecule = "CCCCCCCCN(C)C"
value = "inactive"

[[record]]
molecule = "CC(=O)/C(C)=C/C1C(C)=CCCC1(C)C (stereo not given)"
value = "inactive"

[[record]]
molecule = "O=CNc1ccccc1"
value = "inactive"

[[record]]
molecule = "Cn1c(=O)c2c(ncn2CC(O)CO)n(C)c1=O (stereo not given)"
value = "inactive"

[[record]]
molecule = "COCCOCCOCCOCCOC"
value = "inactive"

[[record]]
molecule = "Nc1cnn([C@@H]2O[C@H](CO)[C@@H](O)[C@H]2O)c(=O)n1"
value = "6.12 µM (active)"

[[record]]
molecule = "O=C1c2cccc(O)c2C(=O)c2c(O)cc(CO)cc21"
value = "24.3 µM (active)"

[[record]]
molecule = "CC(=O)SCc1ccco1"
value = "inactive"

[[record]]
molecule = "O=S1(=O)c2cccc3cccc(c23)N1CCCN1CCN(c2ccc(F)cc2)CC1"
value = "23.7 µM (active)"

[[record]]
molecule = "CCCCCCCCCCCCCCC1CO1 (stereo not given)"
value = "inactive"

[[record]]
molecule = "CC(C)c1ccc2c(C(C)C)cc(C(C)C)c(S(=O)(=O)O)c2c1"
value = "inactive"

[[record]]
molecule = "CNS(=O)(=O)Cc1ccc2[nH]cc(CCN(C)C)c2c1"
value = "inactive"

[[record]]
molecule = "CC(=O)OCCc1ccccc1"
value = "inactive"

[[record]]
molecule = "CCOC(=O)CC(=O)c1cc(F)c(Cl)nc1Cl"
value = "inactive"

[[record]]
molecule = "C=C(C)C(=O)OC(C)C"
value = "inactive"

[[record]]
molecule = "CCCc1ccccc1"
value = "inactive"

